Target: Lili-Mip2 (Diploptera punctata, UniProt Q6SVB5)
Construct: recombinant, codon-optimised synthetic gene, secreted from S. cerevisiae FGY217 with Ost1 or alpha-factor signal; untagged pYES2 version likely (also made with C-terminal His tag)
Sequence (Q6SVB5 entry or part of it): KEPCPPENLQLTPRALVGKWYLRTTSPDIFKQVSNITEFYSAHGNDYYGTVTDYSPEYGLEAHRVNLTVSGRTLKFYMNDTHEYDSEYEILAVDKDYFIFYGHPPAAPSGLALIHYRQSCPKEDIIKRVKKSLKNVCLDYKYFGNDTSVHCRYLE
Assay: intrinsic tryptophan fluorescence titration
Format: binding
Details: read-out: Oleic acid (18:1)
property: pKd
Here pKd is given on a logarithmic scale as minus log10 of the concentration in mol/L.

Recorded pKd for CCCCCCCC/C=C\CCCCCCCC(=O)O with Lili-Mip2 (Diploptera punctata, UniProt Q6SVB5), please?
5.77

###

Target: Lili-Mip3
Construct: recombinant, codon-optimised synthetic gene, secreted from S. cerevisiae FGY217 with Ost1 or alpha-factor signal; untagged pYES2 version likely (also made with C-terminal His tag)
Test: intrinsic tryptophan fluorescence titration
Assay type: binding, Diploptera punctata
Details: 50 mM sodium acetate pH 4.8, 100 mM NaCl, 25°C; delipidated protein; read-out: Myristoleic acid (14:1)
Source text: intrinsic tryptophan fluorescence titration on Lili-Mip3
property: pKd
Here pKd is given on a logarithmic scale as minus log10 of the concentration in mol/L.

Would you kindly share the measured pKd for CCCC/C=C\CCCCCCCC(=O)O ?
6.17
